For each of the compounds below, state its GI50.
# System: HT-29
# assay.summary: NCI tumour cell line growth inhibition, 48 h
Calls of active or inactive are those of the source. Cut-off read from the data, not from the text of the source: active = GI50 up to about 1.1 µM and inactive = higher.

compound	system.under.test	GI50
COc1c(C)n(CCO)ccc1=O	HT-29	> 100 µM (inactive)
CC[C@@H]1CC[C@@H]2[C@H](CC[C@]3(C)[C@@H](O[N+](=O)[O-])CC[C@@H]23)[C@H]1C(C)=O	HT-29	13.1 µM (inactive)
COP(=O)(OC)C(N)CCSC (stereo unspecified)	HT-29	> 100 µM (inactive)
COc1ccc(CNc2nc3cc(C(F)(F)F)ccc3nc2C)cc1OC	HT-29	39.9 µM (inactive)
O=C1CC2(CCNCC2)C(=O)N1N1CCCC1	HT-29	> 100 µM (inactive)

**Q:** GI50 for "COc1cc(NS(C)(=O)=O)ccc1N1Cc2c[nH]c3ccc4nc(C)cc1c4c23" ?
**A:** > 100 µM (inactive)
